Reference source for all entries: PubChem BioAssay (Tox21)

Biological target: Acetylcholinesterase (Homo sapiens)
Test: Acetylcholinesterase (AChE) small molecule antagonists: colormetric cell-based qHTS assay (AID 1347395); further: nearly all actives have a fitted effect of over 30% in size
Details: SH-SY5Y cells AChE activity, colorimetric (Ellman); series mostly up to 115 µM
Results filed as inconclusive are left out. Calls of active or inactive are those of the source. The call rests on the fitted dose curve.
Mark one answer only. Choices: active, inactive

Field: example entries. Status: answers known.
{"columns": ["molecule", "class.label"],
 "data": [
  ["CCCCN", "inactive"],
  ["Cc1cc(O)c2ccccc2c1O", "inactive"],
  ["CC(C)SCc1ccco1", "inactive"],
  ["CCOC(=O)c1ccc(N(C)C)cc1", "inactive"]
]}

Ask: Fill in: this test's call for COc1cc(C(=O)NC2CCN(C)CC2)ccc1Nc1ncc2c(n1)N(C1CCCC1)CC(F)(F)C(=O)N2C is ___
Result: active

Ask: Answer briefly: the call reported for COc1c(N2C[C@@H]3CCCN[C@@H]3C2)c(F)cc2c(=O)c(C(=O)O)cn(C3CC3)c12 in this assay.
Result: inactive

Ask: Test call for this molecule, please: Oc1ccc(C2CNCCc3c2cc(O)c(O)c3Cl)cc1 (configuration not stated)
Result: inactive

Ask: Name the outcome recorded for Cc1oc2c(NC(=O)c3c(Cl)cccc3Cl)cccc2c1C(C)(C)O in the assay.
Result: inactive
